Reference source: patent US8461189B2

# experimental_target: Cyp3A4 (Homo sapiens, UniProt P08684)
# Sequence (P08684 whole entry, species assumed): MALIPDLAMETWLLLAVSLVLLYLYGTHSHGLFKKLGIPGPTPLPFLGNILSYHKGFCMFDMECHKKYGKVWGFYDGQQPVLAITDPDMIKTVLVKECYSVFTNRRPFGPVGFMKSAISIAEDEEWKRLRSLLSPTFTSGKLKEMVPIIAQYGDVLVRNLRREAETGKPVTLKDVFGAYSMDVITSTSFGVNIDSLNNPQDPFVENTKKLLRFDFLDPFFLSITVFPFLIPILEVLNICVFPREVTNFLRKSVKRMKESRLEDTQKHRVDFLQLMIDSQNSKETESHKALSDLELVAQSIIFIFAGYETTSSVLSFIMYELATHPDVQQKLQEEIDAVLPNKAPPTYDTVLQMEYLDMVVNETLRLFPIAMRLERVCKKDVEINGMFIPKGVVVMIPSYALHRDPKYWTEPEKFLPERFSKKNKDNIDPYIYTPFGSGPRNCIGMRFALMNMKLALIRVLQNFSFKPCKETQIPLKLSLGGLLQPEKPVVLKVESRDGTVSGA
# run_description: Cyp inhibition, Cyp3A4
# Assay type: in vitro ADME
# test_settings: read-out: Percent Cyp inhibition, Cyp3A4
readout_name: inhibition at 10 µM (%)
// return numeric value only (unit: %, not printed)

Lookup: Quick one: inhibition at 10 µM of `COC(=O)NCc1ccc(C(=O)Nc2nc(-c3ccccc3)ccc2N)cc1` ?
Found: 29

Lookup: Check `Nc1ccc(-c2ccccc2)nc1NC(=O)c1ccc(CNC(=O)OCc2ccccn2)cc1` too.
Found: 27

Lookup: What do you get for `Nc1ccc(-c2ccccc2)nc1NC(=O)c1ccc(CNC(=O)OCc2cccnc2)cc1` ?
Found: 46

Lookup: Field entry: `Nc1ccc(-c2ccccc2)nc1NC(=O)c1ccc(CNC(=O)OCc2ccccc2)cc1`
Found: 7
